system: Bacteroides uniformis; experiment: growth AUC relative to DMSO control (median of replicates) (fraction); higher = more growth (less inhibition), active = hit call of the paper; settings: 20 µM; 24 h
Documented growth AUC across a set of compounds
Would you mind answering with just the numeric figure?

Some compounds with known growth AUC results, for comparison:
> print(dat)
                                   compound         measuredtarget  valueobserved
1  CC1(C)C(/C=C(\Cl)C(F)(F)F)C1C(=O)OC(C#N)c1cccc(Oc2ccccc2)c1 (configuration not stated)  Bacteroides uniformis          0.993
2              Clc1c(Cl)c(Cl)c(Cl)c(Cl)c1Cl  Bacteroides uniformis          0.992
3               COC(=O)COc1cc(Cl)c(Cl)cc1Cl  Bacteroides uniformis          0.966
4  CCOC(=O)CC(SP(=S)(OC)OC)C(=O)OCC (configuration not stated)  Bacteroides uniformis          0.965
5             COP(=S)(OC)Oc1cc(Cl)c(I)cc1Cl  Bacteroides uniformis          0.954
6  CC1CCCCC1NC(=O)Nc1ccccc1 (mixture of isomers)  Bacteroides uniformis          0.959
7  COC(=O)C(C)N(C(=O)c1ccco1)c1c(C)cccc1C (configuration not stated)  Bacteroides uniformis           0.88
8  COP(=S)(Oc1cc(Cl)c(Br)cc1Cl)c1ccccc1 (configuration not stated)  Bacteroides uniformis          0.993

Problem: For the compound shown here, "Clc1ccc(Cl)c(Cl)c1" , give the reported growth AUC.
Solution: 0.953

Problem: Also C=CCC1=C(C)C(OC(=O)C2C(C=C(C)C)C2(C)C)CC1=O (configuration not stated) ?
Solution: 0.98

Problem: Also "CCNc1nc(NC(C)C)[nH]c(=O)n1" ?
Solution: 1.07

Problem: Also "CC(C)(C)N(NC(=O)c1ccc(Cl)cc1)C(=O)c1ccccc1" ?
Solution: 1.01

Problem: Also "CC(C)N1C(=O)N(c2ccccc2)CSC1=NC(C)(C)C" ?
Solution: 0.981

Problem: Also "CCC(C)(CC)c1cc(NC(=O)c2c(OC)cccc2OC)on1" ?
Solution: 0.965

Problem: Also "COC(=O)[C@@H](C)N(C(=O)Cc1ccccc1)c1c(C)cccc1C" ?
Solution: 0.897

Problem: Also "CNC(=O)O/N=C(\SC)C(=O)N(C)C" ?
Solution: 1.01

Problem: Also "Oc1ccc(Cl)c(Cl)c1Cl" ?
Solution: 0.96

Problem: Also "CCOP(=S)(OCC)SCn1nnc2ccccc2c1=O" ?
Solution: 0.913

Problem: Also "CCOP(=O)(OCC)O/C(=C\Cl)c1ccc(Cl)cc1Cl" ?
Solution: 0.942

Problem: Also "CCOCn1c(-c2ccc(Cl)cc2)c(C#N)c(Br)c1C(F)(F)F" ?
Solution: 0.943

Problem: Also "Cc1cccc(C)c1N" ?
Solution: 1.06

Problem: Also CCS(=O)c1c(C#N)nn(-c2c(Cl)cc(C(F)(F)F)cc2Cl)c1N (configuration not stated) ?
Solution: 0.959

Problem: Also "CCOP(=O)(OCC)OCC" ?
Solution: 1.03

Problem: Also "CNC(=O)Oc1cccc2ccccc12" ?
Solution: 1.03

Problem: Also "CC(C)N(C(=O)CCl)c1ccccc1" ?
Solution: 0.96

Problem: Also C#CCN1CC(=O)N(COC(=O)C2C(C=C(C)C)C2(C)C)C1=O (mixture of isomers) ?
Solution: 0.962
